Below, each entry is listed alongside its reported switch fluorescence ratio.
Tested on: ATP;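 also: ATP exposure 15 min at 22 °C before imaging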
Assay: switch fluorescence ratio, 500 uM ATP over buffer (Cy3 cluster intensity, sum of 5 cycles each) (fold (ratio)); higher = stronger signal-on switching upon ATP binding; sequences stand for … in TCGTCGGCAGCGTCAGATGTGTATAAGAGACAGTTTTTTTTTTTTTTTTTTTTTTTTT…TC
Conditions: aptamer strand: ATP DNA aptamer (quencher-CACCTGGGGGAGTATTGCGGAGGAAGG + anchor), 100 nM annealed; ATP concentration: 500 uM
Please give the numeric answer without any surrounding text.

Check out these entries, answers already filled in.
Please report the measured switch fluorescence ratio for TTTTTCGTTT tested on ATP.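 Also: ATP exposure 15 min at 22 °C before imaging.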
0.997

Please respond with reported switch fluorescence ratio (system ATP) for GACCGATGGG .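 Also: ATP exposure 15 min at 22 °C before imaging.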
1.01

Give switch fluorescence ratio; test system ATP; sequence GGCGGTTTGT;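 also: ATP exposure 15 min at 22 °C before imaging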
1

---
Fill in: switch fluorescence ratio on ATP, entry ATAAGCGAAG
0.993

Answer with switch fluorescence ratio of TGGGGGGAGG measured for ATP.
1

Identify measured switch fluorescence ratio obtained with ATP for GAGTGTCCGG .
0.982

Retrieve switch fluorescence ratio on ATP; query CACGGGGGA
0.974

Specify the recorded switch fluorescence ratio for CGGTGTATCG , system: ATP.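 Also: ATP exposure 15 min at 22 °C before imaging.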
0.983

Given GGAATCAGGT , report its switch fluorescence ratio on ATP.
1.01

Give measured switch fluorescence ratio for AATTTTTAGT (ATP).
0.981

Report switch fluorescence ratio under test system ATP for AAGTATTTTT .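 Also: ATP exposure 15 min at 22 °C before imaging.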
1.02

----------
Test system: ATP;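 also: ATP exposure 15 min at 22 °C before imaging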
Test: switch fluorescence ratio, 500 uM ATP over buffer (Cy3 cluster intensity, sum of 5 cycles each) (fold (ratio)); higher = stronger signal-on switching upon ATP binding; sequences stand for … in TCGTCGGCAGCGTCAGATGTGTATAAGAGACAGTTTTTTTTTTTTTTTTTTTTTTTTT…TC
Conditions: aptamer strand: ATP DNA aptamer (quencher-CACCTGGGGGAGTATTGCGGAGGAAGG + anchor), 100 nM annealed; ATP concentration: 500 uM
Reported property: switch fluorescence ratio
Lab note: jot down the number only; don't add units.

# count of solved cases: 5
Look up and state reported switch fluorescence ratio for AGCGGTTTCC
1.03

Item CGATTATGGT : provide switch fluorescence ratio
1

Fill in switch fluorescence ratio for record AGTCATTGTT
0.989

Give reported switch fluorescence ratio value for TAATTTTAGC
0.991

Name the recorded switch fluorescence ratio of the item AGTAAGTTTT in your answer.
1.03

Continuing:
Return the recorded switch fluorescence ratio value; entry: CGAAGCAGCG
1.4

Please list switch fluorescence ratio recorded for the sequence TGATCGGGGA
1.03

Output measured switch fluorescence ratio for this item: GCCATTTTGG
0.993

Identify switch fluorescence ratio associated with the sequence TGCAGGTTAC
1.12

Tell me measured switch fluorescence ratio for AGCTTATTGC please.
0.977

Provide measured switch fluorescence ratio value, entry: GAGACCTATT
0.993

Output measured switch fluorescence ratio for this item: GGTTTGGGGG
0.997

----------
System: ATP;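 also: ATP exposure 15 min at 22 °C before imaging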
Test: switch fluorescence ratio, 500 uM ATP over buffer (Cy3 cluster intensity, sum of 5 cycles each) (fold (ratio)); higher = stronger signal-on switching upon ATP binding; sequences stand for … in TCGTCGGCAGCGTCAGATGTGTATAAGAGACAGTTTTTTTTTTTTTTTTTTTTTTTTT…TC
Settings: aptamer strand: ATP DNA aptamer (quencher-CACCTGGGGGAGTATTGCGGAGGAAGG + anchor), 100 nM annealed; ATP concentration: 500 uM
Reported property: switch fluorescence ratio

Examples with their reported switch fluorescence ratio follow.
Respond only with switch fluorescence ratio recorded for GCTGGCAGTG
0.972

Quote switch fluorescence ratio reported for ACGGGCTAGG please.
1.01

Identify switch fluorescence ratio associated with the sequence GCGGTCAGGG
1.01

For the sequence ATTGCGTGTA , report switch fluorescence ratio.
1.02

Quote switch fluorescence ratio reported for TCGTGGATGT please.
1

Next:
Identify the reported switch fluorescence ratio for the following entry. CGTATGCTGG
1.02

----------
System: ATP;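 also: ATP exposure 15 min at 22 °C before imaging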
Assay: switch fluorescence ratio, 500 uM ATP over buffer (Cy3 cluster intensity, sum of 5 cycles each) (fold (ratio)); higher = stronger signal-on switching upon ATP binding; sequences stand for … in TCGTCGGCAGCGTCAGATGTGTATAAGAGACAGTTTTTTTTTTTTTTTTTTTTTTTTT…TC
Details: aptamer strand: ATP DNA aptamer (quencher-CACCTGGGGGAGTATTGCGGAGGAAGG + anchor), 100 nM annealed; ATP concentration: 500 uM
Reported property: switch fluorescence ratio

Quote switch fluorescence ratio reported for GGTATATTCC please.
1.02

Supply measured switch fluorescence ratio of ACATTTATCT in your reply.
1.02

Note switch fluorescence ratio for the sequence shown: CCAAGTTTTT
0.98

----------
System: ATP;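 also: ATP exposure 15 min at 22 °C before imaging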
Test: switch fluorescence ratio, 500 uM ATP over buffer (Cy3 cluster intensity, sum of 5 cycles each) (fold (ratio)); higher = stronger signal-on switching upon ATP binding; sequences stand for … in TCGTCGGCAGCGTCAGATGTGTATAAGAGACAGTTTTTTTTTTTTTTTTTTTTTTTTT…TC
Settings: aptamer strand: ATP DNA aptamer (quencher-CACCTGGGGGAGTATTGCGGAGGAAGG + anchor), 100 nM annealed; ATP concentration: 500 uM
Recorded switch fluorescence ratio for the following sequences

Here are 5 sequences together with their reported answers.
Tell me switch fluorescence ratio reported for AAGGTGGGTA
0.99

Dear colleague, please send me the reported switch fluorescence ratio for TGTGAATCAG when you can.
1.02

Return value of switch fluorescence ratio for input ATTTTGTCGC , no commentary.
0.992

Report switch fluorescence ratio for GCGGGGTGGG
0.983

For the sequence GGTTCTTGAA , report switch fluorescence ratio.
0.994

***
Check the records and state switch fluorescence ratio for GGCGGGCATG
1.02

State its switch fluorescence ratio for this sequence: AATTGGCTTA
0.997

Give a short answer stating reported switch fluorescence ratio for AATTTCGCTT .
1

Supply measured switch fluorescence ratio of TGGGTGGCTC in your reply.
1.01

----------
// reported switch fluorescence ratio for each item listed
Test system: ATP;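 also: ATP exposure 15 min at 22 °C before imaging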
Assay: switch fluorescence ratio, 500 uM ATP over buffer (Cy3 cluster intensity, sum of 5 cycles each) (fold (ratio)); higher = stronger signal-on switching upon ATP binding; sequences stand for … in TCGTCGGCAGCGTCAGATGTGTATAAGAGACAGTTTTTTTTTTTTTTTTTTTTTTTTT…TC
Settings: aptamer strand: ATP DNA aptamer (quencher-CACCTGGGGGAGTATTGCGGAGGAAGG + anchor), 100 nM annealed; ATP concentration: 500 uM
Give the figure by itself; no unit, no explanation.

Read off the recorded switch fluorescence ratio for GACCTTTCTG
0.997

Provide measured switch fluorescence ratio value, entry: GTCAGGCCGG
1.09

# return recorded switch fluorescence ratio for input ATTTTATTTG
1.06

Others:
Give the reported switch fluorescence ratio for this sequence. GCTGGGAGGG
0.979

Could you please provide reported switch fluorescence ratio for GGGCTTAGTG ? Thanks!
0.993

Find the measured switch fluorescence ratio of TTCCTACGAT and report it.
1.42

Determine from records and report switch fluorescence ratio for AAATTAGTGT
0.968

Give recorded switch fluorescence ratio. AAGGGGGGTG
1.03

For GGTTACATTG , write its switch fluorescence ratio.
0.993

----------
Test system: ATP;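 also: ATP exposure 15 min at 22 °C before imaging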
Experiment: switch fluorescence ratio, 500 uM ATP over buffer (Cy3 cluster intensity, sum of 5 cycles each) (fold (ratio)); higher = stronger signal-on switching upon ATP binding; sequences stand for … in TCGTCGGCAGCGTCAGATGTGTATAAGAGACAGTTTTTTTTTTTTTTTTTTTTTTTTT…TC
Conditions: aptamer strand: ATP DNA aptamer (quencher-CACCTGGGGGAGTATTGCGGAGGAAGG + anchor), 100 nM annealed; ATP concentration: 500 uM
Measured switch fluorescence ratio values are reported for all entries that follow.
Reply briefly: the number, and no unit.

Recorded switch fluorescence ratio, per entry:
Tell me its switch fluorescence ratio on ATP: TACGTTACTC
1.56

Report its switch fluorescence ratio with ATP as the test system: ATTGTCGG
0.972

Please indicate recorded switch fluorescence ratio of AATTCAGCAT measured with ATP.
1.03

For ATP, give switch fluorescence ratio of the listed sequence: CAGCGCGTCT
1.07

Output reported switch fluorescence ratio of the sequence GGGCTAACCT on ATP.
1.32

# assay system ATP: give switch fluorescence ratio of AGTAATAAGT;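 also: ATP exposure 15 min at 22 °C before imaging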
0.979

Provide the reported switch fluorescence ratio (system: ATP) for ATGCGGTGTG;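 also: ATP exposure 15 min at 22 °C before imaging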
0.978

Give switch fluorescence ratio; test system ATP; sequence TGCTAACAGG;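 also: ATP exposure 15 min at 22 °C before imaging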
1.02

Answer briefly: switch fluorescence ratio recorded on ATP for TGGGGCAACG
0.979

Provide switch fluorescence ratio, recorded with ATP, of GGTGTGATTT
1

Further cases:
// output switch fluorescence ratio; input GTTAGAGTAT ; system ATP;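 also: ATP exposure 15 min at 22 °C before imaging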
1

For ATP, give the measured switch fluorescence ratio of the entry TTTCATATGA
1

Determine reported switch fluorescence ratio for TTAGGGCGAC ; test system: ATP.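 Also: ATP exposure 15 min at 22 °C before imaging.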
1

Provide the reported switch fluorescence ratio (system: ATP) for GCCGGGAGTA;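 also: ATP exposure 15 min at 22 °C before imaging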
1

Give switch fluorescence ratio only, for TGTTTAGGAG , using ATP data.
1.01

Using ATP as the test system, report measured switch fluorescence ratio of TTATAAGTAG .
1.01
